- Tested on: Caco-2 cells
- measurementSetup: human, Caco-2, 200 uM
Rule: Met for Ratio A-B/B-A not less than 3, Not met for anything less.

Here are 10 molecules together with their reported answers.
molecule | assayedTarget | category
CCCC(OC(=O)NC[C@H](CC(=O)[O-])c1ccc(Cl)cc1)OC(=O)C(C)C.[Na+] (some centres unmarked) | Caco-2 cells | Met
CCCC(=O)OC(CCC)OC(=O)NC[C@H](CC(=O)[O-])c1ccc(Cl)cc1.[Na+] (some centres unmarked) | Caco-2 cells | Met
CCC(=O)OC(OC(=O)NC[C@H](CC(=O)[O-])c1ccc(Cl)cc1)C(C)C.[Na+] (some centres unmarked) | Caco-2 cells | Met
O=C([O-])C[C@@H](CNC(=O)OCOC(=O)c1ccccc1)c1ccc(Cl)cc1.[Na+] | Caco-2 cells | Met
CC(=O)OCOC(=O)NC[C@H](CC(=O)[O-])c1ccc(Cl)cc1.[Na+] | Caco-2 cells | Not met
CCCC(OC(=O)NC[C@H](CC(=O)[O-])c1ccc(Cl)cc1)OC(=O)c1ccccc1.[Na+] (some centres unmarked) | Caco-2 cells | Met
O=C(O)C[C@@H](CNC(=O)OCOC(=O)C1CCCCC1)c1ccc(Cl)cc1 | Caco-2 cells | Met
CCCC(=O)OC(CC)OC(=O)NC[C@H](CC(=O)[O-])c1ccc(Cl)cc1.[Na+] (some centres unmarked) | Caco-2 cells | Met
CCCC(=O)OC(C)OC(=O)NC[C@H](CC(=O)[O-])c1ccc(Cl)cc1.[Na+] (some centres unmarked) | Caco-2 cells | Met
CC(C)C(OC(=O)NC[C@H](CC(=O)O)c1ccc(Cl)cc1)OC(=O)C(C)(C)C (some centres unmarked) | Caco-2 cells | Not met

(Q) Does CCCC(=O)OC(OC(=O)NC[C@H](CC(=O)O)c1ccc(Cl)cc1)C(C)C (some centres unmarked) have a reported Ratio A-B/B-A of at least 3?
(A) Met

(Q) Does `COc1ccc(C(=O)OCOC(=O)NC[C@H](CC(=O)[O-])c2ccc(Cl)cc2)cc1.[Na+]` have a reported Ratio A-B/B-A of at least 3?
(A) Not met

(Q) Does CC(OC(=O)NC[C@H](CC(=O)O)c1ccc(Cl)cc1)OC(=O)C1CCCCC1 (some centres unmarked) have a reported Ratio A-B/B-A of at least 3?
(A) Not met
